# IC50 per entry
- Assayed target: KRAS G12D (Homo sapiens, UniProt P01116, G12D)
- Sequence (P01116 1-188 isoform P01116-2 G12D): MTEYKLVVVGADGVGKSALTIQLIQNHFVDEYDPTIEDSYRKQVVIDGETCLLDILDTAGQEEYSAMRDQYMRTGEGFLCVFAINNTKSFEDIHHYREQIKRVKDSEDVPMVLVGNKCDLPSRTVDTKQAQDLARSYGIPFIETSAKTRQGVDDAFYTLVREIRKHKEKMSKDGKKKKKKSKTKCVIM
- Method summary: HTRF KRAS-SOS1 interaction assay, KRAS G12D
- Setup conditions: binned ≤2 μM / >2 μM, read-out: Inhibition of KRAS G12D (IC50)

Some entries whose results are on file:
[
  {
    "Compound": "C[C@H](c1cc(C(F)(F)F)cnc1N)N1CCOc2c(Cl)c(-c3ccc(F)c4sc(N)c(C#N)c34)c(F)c3nc(OC[C@@]45CCCN4C[C@H](F)C5)nc1c23",
    "Assayed target": "KRAS G12D (Homo sapiens, UniProt P01116, G12D)",
    "IC50": "≤ 2000 nM"
  },
  {
    "Compound": "C[C@H](c1cc(Cl)cnc1N)N1CCOc2c(C(F)(F)F)c(-c3ccc(F)c4sc(N)c(C#N)c34)c(F)c3nc(OC[C@@]45CCCN4C[C@H](F)C5)nc1c23 (single isomer, unassigned) [Compound 702]",
    "Assayed target": "KRAS G12D (Homo sapiens, UniProt P01116, G12D)",
    "IC50": "> 2000 nM"
  },
  {
    "Compound": "C[C@H](c1cccnc1N)N1CCOc2nc(-c3ccc(F)c4sc(N)c(C#N)c34)c(F)c3nc(OC[C@@]45CCCN4C[C@H](F)C5)nc1c23 (single isomer, unassigned)",
    "Assayed target": "KRAS G12D (Homo sapiens, UniProt P01116, G12D)",
    "IC50": "≤ 2000 nM"
  },
  {
    "Compound": "CC(=O)c1c(F)ccc2cc(O)cc(-c3nc4c5c(nc(OC[C@@H]6CCCN6C)nc5c3F)N(C(C)c3cccnc3N)CCO4)c12 (mixture of isomers) [Compound 801]",
    "Assayed target": "KRAS G12D (Homo sapiens, UniProt P01116, G12D)",
    "IC50": "≤ 2000 nM"
  }
]

Then this compound:
Record C=CC[C@H](c1cccnc1N)N1CCOc2c(C(F)(F)F)c(-c3ccc(F)c4sc(N)c(C#N)c34)c(F)c3nc(OC[C@@]45CCCN4C[C@H](F)C5)nc1c23 (single isomer, unassigned) . Reported IC50: ≤ 2000 nM

###

- Assayed target: KRAS WT (Homo sapiens)
- Sequence (P01116 1-188 isoform P01116-2): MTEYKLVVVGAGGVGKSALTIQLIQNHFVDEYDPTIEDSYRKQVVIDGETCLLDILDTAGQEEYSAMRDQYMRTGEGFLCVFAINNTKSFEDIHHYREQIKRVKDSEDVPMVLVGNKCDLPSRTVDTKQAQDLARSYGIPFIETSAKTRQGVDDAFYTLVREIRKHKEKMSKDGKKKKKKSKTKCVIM
- Method summary: HTRF KRAS-SOS1 interaction assay, wildtype KRAS
- Setup conditions: binned ≤2 μM / >2 μM, read-out: Inhibition of KRAS WT (IC50)
Value type: IC50

[
  {
    "Compound": "C[C@H](c1cc(Cl)cnc1N)N1CCOc2c(C(F)(F)F)c(-c3ccc(F)c4sc(N)c(C#N)c34)c(F)c3nc(OCC4(CN5CCC(F)CC5)CC4)nc1c23",
    "Observed measurement": "≤ 2000 nM"
  },
  {
    "Compound": "CN(C)CCC[C@H](c1cccnc1N)N1CCOc2c(C(F)(F)F)c(-c3ccc(F)c4sc(N)c(C#N)c34)c(F)c3nc(OC[C@@]45CCCN4C[C@H](F)C5)nc1c23 (single isomer, unassigned)",
    "Observed measurement": "≤ 2000 nM"
  },
  {
    "Compound": "C#C[C@H]1COc2c(Cl)c(-c3ccc(F)c4sc(N)c(C#N)c34)c(F)c3nc(OC[C@@]45CCCN4C[C@H](F)C5)nc(c23)N1C(C)c1cccnc1N (single isomer, unassigned)",
    "Observed measurement": "≤ 2000 nM"
  },
  {
    "Compound": "C[C@H](c1cncnc1N)N1CCOc2c(C(F)(F)F)c(-c3ccc(F)c4sc(N)c(C#N)c34)c(F)c3nc(OCC4(CN5CCC(F)CC5)CC4)nc1c23",
    "Observed measurement": "≤ 2000 nM"
  }
]

Now consider a different compound.
// CCO/N=C(\C)CCC[C@H](c1cccnc1N)N1CCOc2c(C(F)(F)F)c(-c3ccc(F)c4sc(N)c(C#N)c34)c(F)c3nc(OC[C@@]45CCCN4C[C@H](F)C5)nc1c23 [Compound 854] : IC50 value = ≤ 2000 nM

###

- Assayed target: KRAS WT (Homo sapiens)
- Method summary: HTRF KRAS-SOS1 interaction assay, wildtype KRAS
- Setup conditions: binned ≤2 μM / >2 μM, read-out: Inhibition of KRAS WT (IC50)
Value type: IC50

Completed entries (count: 2):
[
  {
    "Molecule": "N#Cc1c(N)sc2c(F)ccc(-c3c(C(F)(F)F)c4c5c(nc(OC[C@@]67CCCN6C[C@H](F)C7)nc5c3F)N([C@H](CCCN3CCCCC3)c3cccnc3N)CCO4)c12 (single isomer, unassigned) [Compound 704]",
    "Value type": "IC50",
    "Observed measurement": "≤ 2000 nM"
  },
  {
    "Molecule": "N#Cc1c(N)sc2c(F)ccc(-c3c(Cl)c4c5c(nc(OC[C@@]67CCCN6C[C@@]6(CC6(F)F)C7)nc5c3F)N([C@@H](c3cccnc3N)C(F)F)CCO4)c12 [Compound 831]",
    "Value type": "IC50",
    "Observed measurement": "≤ 2000 nM"
  }
]

For record C[C@H](c1cccnc1N)N1CCOc2c(C(F)(F)F)c(-c3ccc(F)c4sc(N)c(C#N)c34)c(F)c3nc(OCC4(CN5CCC(F)(F)CC5)CC4)nc1c23 [Compound 778] the listed IC50 is ≤ 2000 nM

###

- Assayed target: KRAS G12D (Homo sapiens, UniProt P01116, G12D)
- Method summary: HTRF KRAS-SOS1 interaction assay, KRAS G12D
- Setup conditions: binned ≤2 μM / >2 μM, read-out: Inhibition of KRAS G12D (IC50)
Value type: IC50

Recorded results for 3 molecules are shown here.
[
  {
    "Molecule": "C[C@H](c1cccnc1N)N1CCOc2c(Cl)c(-c3ccc(F)c4sc(N)c(C#N)c34)c(F)c3nc(OC[C@@H]4CC(F)(F)CN4C)nc1c23 (single isomer, unassigned)",
    "Assayed target": "KRAS G12D (Homo sapiens, UniProt P01116, G12D)",
    "Value type": "IC50",
    "Observed measurement": "≤ 2000 nM"
  },
  {
    "Molecule": "C[C@H](c1cccnc1N)N1CCOc2c(C(F)(F)F)c(-c3ccc(F)c4sc(N)c(C#N)c34)c(F)c3nc(OC[C@@]45CCCN4C[C@@]4(CC4(F)F)C5)nc1c23 (single isomer, unassigned)",
    "Assayed target": "KRAS G12D (Homo sapiens, UniProt P01116, G12D)",
    "Value type": "IC50",
    "Observed measurement": "≤ 2000 nM"
  },
  {
    "Molecule": "C[C@H](c1cc(F)cnc1N)N1CCOc2c(C(F)(F)F)c(-c3ccc(F)c4sc(N)c(C#N)c34)c(F)c3nc(OC[C@@]45CCCN4C[C@H](F)C5)nc1c23 (single isomer, unassigned) [Compound 682]",
    "Assayed target": "KRAS G12D (Homo sapiens, UniProt P01116, G12D)",
    "Value type": "IC50",
    "Observed measurement": "> 2000 nM"
  }
]

I looked up N#Cc1c(N)sc2c(F)ccc(-c3c(Cl)c4c5c(nc(OC[C@@]67CCCN6C[C@H](F)C7)nc5c3F)N([C@H](/C=C/C(F)F)c3cccnc3N)CCO4)c12 and its IC50 for KRAS G12D (Homo sapiens, UniProt P01116, G12D) was ≤ 2000 nM

Tested on KRAS G12D (Homo sapiens, UniProt P01116, G12D): Cc1c(F)c(N)cc(-c2nc3c4c(nc(O[C@@H](C)C5CCCN5C)nc4c2F)N([C@H](C)c2cccnc2N)CCO3)c1C(F)(F)F (single isomer, unassigned) . Observed IC50: ≤ 2000 nM

###

- Assayed target: KRAS G12V (Homo sapiens, UniProt P01116, G12V)
- Sequence (P01116 1-188 isoform P01116-2 G12V): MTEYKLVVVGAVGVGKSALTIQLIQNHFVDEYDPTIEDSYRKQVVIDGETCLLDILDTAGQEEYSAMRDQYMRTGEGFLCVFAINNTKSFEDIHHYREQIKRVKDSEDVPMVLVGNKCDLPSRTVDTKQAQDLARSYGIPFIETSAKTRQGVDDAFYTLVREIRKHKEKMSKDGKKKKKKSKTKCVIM
- Method summary: HTRF KRAS-SOS1 interaction assay, KRAS G12V
- Setup conditions: binned ≤2 μM / >2 μM, read-out: Inhibition of KRAS G12V (IC50)
Recorded IC50 by entry

[
  {
    "Compound": "C[C@H](c1cccnc1N)N1CCOc2c(Cl)c(-c3cccc4sc(N)c(C#N)c34)c(F)c3nc(OC[C@@]45CCCN4CC(=C(F)F)C5)nc1c23 (single isomer, unassigned) [Compound 660]",
    "Assayed target": "KRAS G12V (Homo sapiens, UniProt P01116, G12V)",
    "Observed measurement": "≤ 2 µM"
  },
  {
    "Compound": "Cc1c(F)c(N)cc(-c2nc3c4c(nc(OC[C@@H]5CCCN5C)nc4c2F)N([C@H](C)c2cccnc2N)CCO3)c1C(F)(F)F (single isomer, unassigned) [Compound 695]",
    "Assayed target": "KRAS G12V (Homo sapiens, UniProt P01116, G12V)",
    "Observed measurement": "≤ 2 µM"
  }
]

We next turn to a different compound, shown below.
Lab note: compound CC(Oc1nc2c3c(c(Cl)c(-c4ccc(F)c5sc(N)c(C#N)c45)c(F)c3n1)OCCN2[C@H](C)c1cccnc1N)[C@@H]1CC(F)(F)CN1C (single isomer, unassigned) [Compound 659] tested on KRAS G12V (Homo sapiens, UniProt P01116, G12V); recorded IC50 was > 2 µM
